Where these numbers come from: patent US20230129364A1

Beta-amyloid aggregate degradation activity (% of control) for assorted molecules
# assayedTarget: aggregated beta-amyloid; human Aβ 1-42 (UniProtKB-P05067, a.a. 672-713) (Homo sapiens, UniProt P05067)
# Construct: UniProtKB-P05067, a.a; 672-713
# Sequence (P05067 672-713): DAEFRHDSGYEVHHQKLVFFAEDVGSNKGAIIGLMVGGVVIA
# protocolText: Beta-amyloid aggregate degradation test (thioflavin T assay)
# Type: biochemical
# protocolConditions: 500 uM test compound; pre-aggregated Aβ, further 3 days at 37° C.; ThT fluorescence vs control = 100%

Reference set (5 entries):
molecule: O=C1NC(=S)S/C1=C\c1ccc2occc2c1 [DN204809]
obsValue: 25.32 % of control

molecule: CCN1C(=O)/C(=C/c2c[nH]c3ccncc23)SC1=S [DN205780]
obsValue: 35.73 % of control

molecule: CCN1C(=O)/C(=C/c2ccoc2)NC1=S [DN204814]
obsValue: −40.60 % of control

molecule: O=C1NC(=S)SC1Cc1c[nH]c2ncccc12 (stereo not shown) [DN204304]
obsValue: 73.11 % of control

molecule: O=C1NC(=S)S/C1=C\c1c[nH]c2cccnc12 [DN204808]
obsValue: 73.30 % of control

Name the recorded Beta-amyloid aggregate degradation activity (% of control) of the molecule listed here: O=C1NC(=S)S/C1=C\c1ccoc1 [DN204298] 7.79 % of control

Name the recorded Beta-amyloid aggregate degradation activity (% of control) of the molecule listed here: O=C1NC(=S)S/C1=C\c1cc[nH]c1 [DN204297] 28.19 % of control

Name the recorded Beta-amyloid aggregate degradation activity (% of control) of the molecule listed here: O=C1NC(=S)S/C1=C\c1c[nH]c2ncccc12 [DN205355] 44.61 % of control
